Here, each record is paired with measured IC50 data.
system: TE-12; experiment: cells; format: functional, cell-based; conditions: Homo sapiens;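 note: growth inhibition of TE-12 cells, read out by a cell viability assay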
Description: SANGER: Inhibition of human TE-12 cell growth in a cell viability assay.

1) CC[C@]1(O)C[C@@H]2CN(CCc3c([nH]c4ccccc34)[C@@](C(=O)OC)(c3cc4c(cc3OC)N(C)[C@H]3[C@@](O)(C(=O)OC)[C@H](OC(C)=O)[C@]5(CC)C=CCN6CC[C@]43[C@@H]65)C2)C1; > 100 nM
2) Cn1c(=O)n(-c2ccc(C(C)(C)C#N)cc2)c2c3cc(-c4cnc5ccccc5c4)ccc3ncc21; 141 nM

Then this compound:
Problem: Need IC50, item COc1cc(Nc2c(C#N)cnc3cc(OCCCN4CCN(C)CC4)c(OC)cc23)c(Cl)cc1Cl
Solution: > 2000 nM
